Assay: Neuroprotective activity against H2O2-induced neuronal damage in Sprague-Dawley rat cerebral cortical cells after 20 to 24 hrs by MTT assay
Format: functional
measurement-kind: IC50 (µM)
Express it in µM; write the number only.

1. COc1c(-c2ccc(O)c(O)c2)oc2cc(OCC(=O)OC[C@@H]3OC(O)[C@@H](O)[C@H](O)[C@H]3O)cc(O)c2c1=O (some centres undefined): 5.34
2. O=C(COc1cc(O)c2c(=O)cc(-c3ccc(O)c(O)c3)oc2c1)OC[C@@H]1OC(O)[C@@H](O)[C@H](O)[C@H]1O (some centres undefined): 12.7
3. COc1c(-c2ccc(O)c(O)c2)oc2cc(O)cc(O)c2c1=O [3-O-METHYLQUERCETIN]: 3.5

The record that follows has no IC50 shown yet.
Fill in IC50 for record O=c1cc(-c2ccc(O)c(O)c2)oc2cc(OC3O[C@@H](CO)[C@H](O)[C@@H](O)[C@@H]3O)cc(O)c12 (some centres undefined)
7.33
